System Under Test: Enteropeptidase (Homo sapiens)
Assay Method Text: Inhibition of full length recombinant human EP expressed in CHO cells assessed as ratio of Kinact/Kiapp
Format: cell-based
Outcome label depends on Ratio relative to 70000 M⁻¹ s⁻¹: at/above gives label 1, below gives label 0.

Answered cases to consult:
N=C(N)Nc1ccc(C(=O)Oc2ccc(CC(=O)O)n3ncnc23)cc1    label 1
N=C(N)Nc1ccc(C(=O)Oc2ccc(CC(=O)O)n3ccnc23)cc1    label 1
C#CCOCCOCC#Cc1ccc(CC(=O)O)n2ncnc12    label 0
N=C(N)Nc1ccc(C(=O)Oc2ccc(CCC(=O)O)n3ccnc23)cc1    label 0
CS(=O)(=O)NC(=O)Cc1ccc(OC(=O)c2ccc(NC(=N)N)cc2)c2ncnn12    label 1

Check this compound for Ratio at or above 70000 M⁻¹ s⁻¹: N=C(N)Nc1ccc(C(=O)Oc2ccc(CC(=O)O)n3ncnc23)cc1F
label 1

* * *

Assay Method Text: Apparent permeability from apical to basolateral side in dog MDCK cells
Type: ADME, cell-based, Canis lupus familiaris
Quantity Measured: Papp A→B (×10⁻⁶ cm/s)
One number for each entry, in ×10⁻⁶ cm/s.

N=C(N)Nc1ccc(C(=O)Oc2ccc(CC(=O)N(CC(=O)O)CC(=O)O)n3ncnc23)cc1    1.26
N=C(N)Nc1ccc(C(=O)Oc2cc(CCC(=O)O)cn3ncnc23)cc1    1.12
N=C(N)Nc1ccc(C(=O)Oc2ccc(CC(=O)O)n3ncnc23)cc1    1.53
N=C(N)Nc1ccc(C(=O)Oc2ccc(CC(=O)N[C@@H](CC(=O)O)C(=O)O)n3ncnc23)cc1    0.56
CS(=O)(=O)NC(=O)Cc1ccc(OC(=O)c2ccc(NC(=N)N)cc2)c2ncnn12    0.51
N=C(N)Nc1ccc(C(=O)Oc2ccc(CC(=O)NC(CC(=O)O)(CC(=O)O)CC(=O)O)n3ncnc23)cc1    1.09
N=C(N)Nc1ccc(C(=O)Oc2ccc(Cc3nn[nH]n3)n3ncnc23)cc1    1.45
N=C(N)Nc1ccc(C(=O)Oc2ccc(CC(=O)NCC(=O)O)n3ncnc23)cc1    1.03
N=C(N)Nc1ccc(C(=O)Oc2ccc(CC(=O)O)n3ccnc23)cc1    1.48

# next molecule below
// returns reported Papp A→B for input N=C(N)Nc1ccc(C(=O)Oc2ccc(CC(=O)N[C@@H](CC(=O)O)C(=O)O)n3ccnc23)cc1
0.75

* * *

Organism: Bos taurus
Assay Method Text: Inhibition of bovine trypsin assessed as ratio of Kinact/Kiapp
Quantity Measured: Ratio (M⁻¹ s⁻¹)
One number for each entry, in M⁻¹ s⁻¹.

C#CCOCCOCC#Cc1ccc(CC(=O)O)n2ncnc12    59400

# batch size: 3; output Ratio per entry
1. CS(=O)(=O)NC(=O)Cc1ccc(OC(=O)c2ccc(NC(=N)N)cc2)c2ncnn12
2. N=C(N)Nc1ccc(C(=O)Oc2ccc(CC(=O)O)n3ncnc23)cc1
3. N=C(N)Nc1ccc(C(=O)Oc2ccc(CC(=O)O)n3ncnc23)cc1F

1: 163000; 2: 159000; 3: 69700

// returns reported Ratio for input N=C(N)Nc1ccc(C(=O)Oc2ccc(CC(=O)O)n3ccnc23)cc1
111000

* * *

Organism: Bos taurus
Assay Method Text: Inhibition of bovine trypsin assessed as protease activity using D-CHA-AR-AMC as substrate at 1 uM by fluorescence assay relative to control
Design: scale not given: the % may be the effect or the level left
Consider the following compounds; for each one, report its Activity.
Give bare numbers, in %.

Would you please look over these solved cases?
N=C(N)Nc1ccc(C(=O)Oc2ccc(CC(=O)O)n3ncnc23)cc1F    100
COc1cc(C(=O)Oc2ccc(CC(=O)O)n3ncnc23)ccc1NC(=N)N    72.4
O=C(O)Cc1ccc(OC(=O)c2ccc(NC3=NCCN3)cc2)c2ncnn12    -2.97
N=C(N)Nc1ccc(C(=O)Oc2ccc(CC(=O)O)n3ncnc23)cc1    100
O=C(O)Cc1ccc(OC(=O)c2ccc(C3=NCCN3)cc2)c2ncnn12    2.66

# batch size: 2; output Activity per entry
1. N=C(N)Nc1ccc(C(=O)Oc2ccc(CC(=O)O)n3ncnc23)cc1O
2. N#Cc1cc(C(=O)Oc2ccc(CC(=O)O)n3ncnc23)ccc1NC(=N)N

1: 73.1; 2: 12.3

* * *

System Under Test: Enteropeptidase (Homo sapiens) (UniProt P98073)
Sequence (P98073 2-784 limits assumed): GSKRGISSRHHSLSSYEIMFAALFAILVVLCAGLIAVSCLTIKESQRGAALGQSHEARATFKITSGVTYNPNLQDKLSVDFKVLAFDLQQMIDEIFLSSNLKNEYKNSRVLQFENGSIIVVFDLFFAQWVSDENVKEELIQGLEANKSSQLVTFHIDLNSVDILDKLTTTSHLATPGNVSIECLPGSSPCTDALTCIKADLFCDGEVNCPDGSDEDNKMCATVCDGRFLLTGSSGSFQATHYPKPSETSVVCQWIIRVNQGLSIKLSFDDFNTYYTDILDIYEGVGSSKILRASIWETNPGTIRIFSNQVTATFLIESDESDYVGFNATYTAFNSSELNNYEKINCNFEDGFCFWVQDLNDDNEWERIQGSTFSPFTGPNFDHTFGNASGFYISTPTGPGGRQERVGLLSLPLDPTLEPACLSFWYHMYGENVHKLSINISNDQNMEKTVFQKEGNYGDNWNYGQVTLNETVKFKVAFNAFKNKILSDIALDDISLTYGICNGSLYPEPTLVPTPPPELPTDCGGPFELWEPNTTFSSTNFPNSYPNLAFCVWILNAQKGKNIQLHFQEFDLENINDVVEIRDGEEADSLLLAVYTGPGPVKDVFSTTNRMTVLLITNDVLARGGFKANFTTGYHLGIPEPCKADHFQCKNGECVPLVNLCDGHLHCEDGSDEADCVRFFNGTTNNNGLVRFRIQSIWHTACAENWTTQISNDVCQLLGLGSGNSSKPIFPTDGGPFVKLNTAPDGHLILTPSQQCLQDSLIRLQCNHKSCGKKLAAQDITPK
Sequence (P98073 785-1019 limits assumed): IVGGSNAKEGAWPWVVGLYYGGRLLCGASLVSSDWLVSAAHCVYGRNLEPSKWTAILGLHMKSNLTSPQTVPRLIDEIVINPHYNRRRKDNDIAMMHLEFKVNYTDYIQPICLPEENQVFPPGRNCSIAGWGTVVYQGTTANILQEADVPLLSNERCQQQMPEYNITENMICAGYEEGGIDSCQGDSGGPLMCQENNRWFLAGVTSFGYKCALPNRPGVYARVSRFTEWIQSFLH
Assay Method Text: Inhibition of full length recombinant human EP expressed in CHO cells assessed as protease activity using […] as substrate at 10 uM by fluorescence assay relative to control
Parameters: scale not given: the % may be the effect or the level left
Quantity Measured: Activity (%)
Numbers only, in %.

Would you please look over these solved cases?
N#Cc1cc(C(=O)Oc2ccc(CC(=O)O)n3ncnc23)ccc1NC(=N)N    32.1
C/N=C(\NC)Nc1ccc(C(=O)Oc2ccc(CC(=O)O)n3ncnc23)cc1    12.6
N=C(N)Nc1ccc(C(=O)Oc2ccc(CC(=O)O)n3ncnc23)c(F)c1    100
COc1cc(C(=O)Oc2ccc(CC(=O)O)n3ncnc23)ccc1NC(=N)N    101
N=C(N)Nc1ccc(C(=O)Oc2ccc(CC(=O)O)n3ncnc23)s1    100

# batch size: 4; output Activity per entry
1. N=C(N)NCc1ccc(C(=O)Oc2ccc(CC(=O)O)n3ncnc23)cc1
2. CN(C(=N)N)c1ccc(C(=O)Oc2ccc(CC(=O)O)n3ncnc23)cc1
3. N=C(N)Nc1ccc(C(=O)Oc2ccc(CC(=O)O)n3ncnc23)cc1F
4. CC(=N)Nc1ccc(C(=O)Oc2ccc(CC(=O)O)n3ncnc23)cc1

[83.6, 99.3, 100, 100]

# batch size: 3; output Activity per entry
1. N=C(N)Nc1cccc(C(=O)Oc2ccc(CC(=O)O)n3ncnc23)c1
2. N=C(N)Nc1ccc(C(=O)Oc2ccc(CC(=O)O)n3ncnc23)cc1Cl
3. C#CCOCCOCC#Cc1ccc(CC(=O)O)n2ncnc12

[6.8, 101, 99.8]

# batch size: 2; output Activity per entry
1. N=C(N)Nc1ccc(C(=O)Oc2ccc(CC(=O)O)n3ncnc23)cc1O
2. Cc1cc(NC(=N)N)ccc1C(=O)Oc1ccc(CC(=O)O)n2ncnc12

101
101

* * *

Consider the following compounds; for each one, report its Activity.
System Under Test: Enteropeptidase (Homo sapiens)
Assay Method Text: Inhibition of full length recombinant human EP expressed in CHO cells assessed as protease activity using […] as substrate at 0.1 uM by fluorescence assay relative to control
Parameters: scale not given: the % may be the effect or the level left
Answers are plain numbers, in %.

N=C(N)Nc1ccc(C(=O)Oc2ccc(CC(=O)O)n3ncnc23)c2ccoc12    36.3
N=C(N)Nc1ccc(C(=O)Oc2ccc(CC(=O)O)n3ncnc23)cc1O    34.3
N=C(N)Nc1ccc(C(=O)Oc2ccc(CC(=O)O)n3ccnc23)cc1    101
CONC(=N)c1ccc(C(=O)Oc2ccc(CC(=O)O)n3ncnc23)cc1    2.43
C/N=C(\NC)Nc1ccc(C(=O)Oc2ccc(CC(=O)O)n3ncnc23)cc1    1.35

# batch size: 8; output Activity per entry
1. N=C(N)Nc1ccc(C(=O)Oc2ccc(CCC(=O)O)n3ncnc23)cc1
2. CNC(=N)c1ccc(C(=O)Oc2ccc(CC(=O)O)n3ncnc23)cc1
3. N=C(N)Nc1ccc(C(=O)Oc2ccc(CC(=O)O)n3ncnc23)c(F)c1
4. N=C(N)Nc1ccc(C(=O)Oc2ccc(CC(=O)O)n3ncnc23)c(C(F)(F)F)c1
5. N=C(N)Nc1cccc(C(=O)Oc2ccc(CC(=O)O)n3ncnc23)c1
6. N=C(N)Nc1ccc(C(=O)Oc2cc(CCC(=O)O)cn3ncnc23)cc1
7. N=C(N)Nc1ccc(C(=O)Oc2ccc(CCC(=O)O)n3ccnc23)cc1
8. O=C(O)Cc1ccc(OC(=O)c2ccc(C3=NCCN3)cc2)c2ncnn12

1: 35; 2: -0.79; 3: 99.4; 4: 4.14; 5: -11.2; 6: 45.2; 7: 27.6; 8: 4.69

* * *

Organism: Bos taurus
Assay Method Text: Inhibition of bovine trypsin assessed as protease activity using D-CHA-AR-AMC as substrate at 1 uM by fluorescence assay relative to control
Set-up: scale not given: the % may be the effect or the level left
Consider the following compounds; for each one, report its Activity.
One number for each entry, in %.

Would you please look over these solved cases?
O=C(O)Cc1ccc(OC(=O)c2ccc(NC3=NCCCN3)cc2)c2ncnn12    -3.49
C/C(=N\O)Nc1ccc(C(=O)Oc2ccc(CC(=O)O)n3ncnc23)cc1    -0.45
N=C(N)Nc1ccc(C(=O)Oc2ccc(CC(=O)O)n3ncnc23)s1    99.9
N=C(N)Nc1ccc(C(=O)Oc2ccc(CC(=O)O)n3ccnc23)cc1    101
N=C(N)Nc1ncc(C(=O)Oc2ccc(CC(=O)O)n3ncnc23)cn1    100

# batch size: 3; output Activity per entry
1. CN(C(=N)N)c1ccc(C(=O)Oc2ccc(CC(=O)O)n3ncnc23)cc1
2. CNC(=N)Nc1ccc(C(=O)Oc2ccc(CC(=O)O)n3ncnc23)cc1
3. N#CNC(=N)c1ccc(C(=O)Oc2ccc(CC(=O)O)n3ncnc23)cc1

[89.2, 57.1, 2.46]

# batch size: 2; output Activity per entry
1. CNC(=N)c1ccc(C(=O)Oc2ccc(CC(=O)O)n3ncnc23)cc1
2. N=C(N)Nc1ccc(C(=O)Oc2ccc(CC(=O)NCC(=O)O)n3ncnc23)cc1

1. 8.66
2. 100
